Every entry's value here was drawn from PubChem BioAssay AID2060484.

Test system: SUM149PT spheroids with HUVEC/MSC, viability
procedure_text: Anticancer human tumor SUM149PT cell line growth inhibition [GQUAD];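 also: spheroids exposed to drugs for seven days before readout; percent viability relative to DMSO vehicle control taken as 100%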
condition: second compound 0.1 µM; first compound 0.0316 µM; hits give low values
measurement_kind: viability, T/C (%)
Report only the number, with the unit % understood.

compound	unit_text	viability, T/C
C#Cc1c(F)ccc2cc(O)cc(-c3ncc4c(N5CC6CCC(C5)N6)nc(OCC56CCCN5CC(F)C6)nc4c3F)c12 (stereo unspecified) + Cc1[nH]c2ccc(F)cc2c1-c1nc2c3cccnc3c3ncccc3c2[nH]1	%	106

SUM149PT spheroids with HUVEC/MSC, viability viability, T/C of COc1cc(C2c3cc4c(cc3C(OC3OC5COC(C)OC5C(O)C3O)C3COC(=O)C23)OCO4)cc(OC)c1O (stereo unspecified) + CN(C)c1ccc(Nc2c3ccc(NC(=O)CCN4CCCC4)cc3nc3cc(NC(=O)CCN4CCCC4)ccc23)cc1 is 102

SUM149PT spheroids with HUVEC/MSC, viability viability, T/C of C=CC(=O)N1CCN(c2nc(=O)n(-c3c(C)ccnc3C(C)C)c3nc(-c4c(O)cccc4F)c(F)cc23)C(C)C1 (stereo unspecified) + CN(C)c1ccc(Nc2c3ccc(NC(=O)CCN4CCCC4)cc3nc3cc(NC(=O)CCN4CCCC4)ccc23)cc1 is 99.7

SUM149PT spheroids with HUVEC/MSC, viability viability, T/C of O=c1[nH]cc(F)c(=O)[nH]1 + Cc1[nH]c2ccc(F)cc2c1-c1nc2c3cccnc3c3ncccc3c2[nH]1 is 104

SUM149PT spheroids with HUVEC/MSC, viability viability, T/C of Nc1ccn(C2OC(CO)C(O)C2(F)F)c(=O)n1 (stereo unspecified) + Cc1[nH]c2ccc(F)cc2c1-c1nc2c3cccnc3c3ncccc3c2[nH]1 is 69

SUM149PT spheroids with HUVEC/MSC, viability viability, T/C of COc1cccc2c1C(=O)c1c(O)c3c(c(O)c1C2=O)CC(O)(C(=O)CO)CC3OC1CC(N)C(O)C(C)O1 (stereo unspecified) + Cc1cnc(CNC(=O)c2c(=O)c3ccc(N4CCCN(C)CC4)nc3n3c2sc2ccccc23)cn1 is 57.7

SUM149PT spheroids with HUVEC/MSC, viability viability, T/C of Cc1[nH]c2ccccc2c1CCNCc1ccc(/C=C/C(=O)NO)cc1 + Cc1cnc(CNC(=O)c2c(=O)c3ccc(N4CCCN(C)CC4)nc3n3c2sc2ccccc23)cn1 is 65.2

SUM149PT spheroids with HUVEC/MSC, viability viability, T/C of Cc1[nH]c2ccccc2c1CCNCc1ccc(/C=C/C(=O)NO)cc1 + Cc1[nH]c2ccc(F)cc2c1-c1nc2c3cccnc3c3ncccc3c2[nH]1 is 97.2
